# SYSTEM NAME: Substance-P receptor (Cavia porcellus)
# Sequence (P30547 whole entry): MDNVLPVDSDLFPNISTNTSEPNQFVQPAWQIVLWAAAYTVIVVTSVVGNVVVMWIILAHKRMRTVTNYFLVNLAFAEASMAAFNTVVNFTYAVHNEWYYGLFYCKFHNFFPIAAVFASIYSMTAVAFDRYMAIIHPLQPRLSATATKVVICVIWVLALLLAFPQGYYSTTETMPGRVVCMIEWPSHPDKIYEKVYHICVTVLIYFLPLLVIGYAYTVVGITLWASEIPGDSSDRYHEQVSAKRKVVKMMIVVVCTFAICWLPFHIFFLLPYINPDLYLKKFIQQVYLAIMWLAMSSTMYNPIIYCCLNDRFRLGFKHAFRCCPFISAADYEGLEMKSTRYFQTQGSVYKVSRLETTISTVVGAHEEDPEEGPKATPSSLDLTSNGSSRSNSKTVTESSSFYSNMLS
pIC50: −log10 of the molar value.
Label 1 when pIC50 >= 7; otherwise -1.

Use the examples below as a reference point.
{"columns": ["COMPOUND", "CLASS"],
 "data": [
  ["O=C(N[C@@H]1C2CCN(CC2)[C@@H]1C(c1ccccc1)c1ccccc1)c1ccccc1Cl", -1],
  ["Clc1ccccc1CCCN[C@@H]1C2CCN(CC2)[C@@H]1C(c1ccccc1)c1ccccc1", -1],
  ["FC(F)(F)c1ccccc1CN[C@@H]1C2CCN(CC2)[C@@H]1C(c1ccccc1)c1ccccc1", 1]
]}

# check: pIC50 of CSCC[C@H](NC(=O)[C@H](CC(C)C)NC(=O)CNC(=O)[C@@H](NC(=O)[C@H](Cc1ccccc1)NC(=O)[C@H](Cc1ccccc1)NC(=O)[C@H](CC(=O)O)NC(=O)[C@H](Cc1c[nH]cn1)NC(=O)[C@H](CCSC)NC(=O)[C@@H](N)CC(=O)O)C(C)C)C(N)=O [NEUROKININ B] is greater than or equal to 7
1

Item COc1ccccc1CN[C@@H]1C2CCN(CC2)[C@@H]1Cc1ccccc1 with pIC50 of 7 or above?
-1

State whether the measured pIC50 reaches 7, counting equality as reaching it, for c1ccc(CN[C@@H]2C3CCN(CC3)[C@@H]2C(c2ccccc2)c2ccccc2)cc1
1

Given Cc1ccccc1CN[C@@H]1C2CCN(CC2)[C@@H]1C(c1ccccc1)c1ccccc1 , state whether its pIC50 is at least 7.
-1

====

Reported IC50 values are given for each entry in this list.
# SYSTEM NAME: Substance-P receptor (Rattus norvegicus, UniProt P14600)
# Sequence (P14600 whole entry): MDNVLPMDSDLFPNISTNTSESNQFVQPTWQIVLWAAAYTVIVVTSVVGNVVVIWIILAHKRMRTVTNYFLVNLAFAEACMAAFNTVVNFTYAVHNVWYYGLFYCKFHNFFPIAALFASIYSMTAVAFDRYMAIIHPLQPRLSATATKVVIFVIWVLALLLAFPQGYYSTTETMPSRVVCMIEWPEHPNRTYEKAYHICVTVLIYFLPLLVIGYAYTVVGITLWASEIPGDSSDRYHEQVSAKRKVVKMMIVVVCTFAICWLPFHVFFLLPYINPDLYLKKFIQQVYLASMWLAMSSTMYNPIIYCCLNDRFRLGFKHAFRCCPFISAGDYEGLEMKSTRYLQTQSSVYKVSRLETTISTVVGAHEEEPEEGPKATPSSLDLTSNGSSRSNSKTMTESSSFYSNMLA
# PROTOCOL: Binding affinity towards Tachykinin receptor 1 in rat cerebral cortex membranes was determined by using 125 [I]-BHSP as radioligand
# Type: cell membranes, Membrane
Dear colleague, please return just the value in nM, with no unit written.

{"columns": ["STRUCTURE STRING", "MEASURED"],
 "data": [
  ["CSCC[C@H](NC(=O)[C@H](CC(C)C)NC(=O)CNC(=O)[C@@H](NC(=O)[C@H](Cc1ccccc1)NC(=O)[C@H](Cc1ccccc1)NC(=O)[C@H](CC(=O)O)NC(=O)[C@H](Cc1c[nH]cn1)NC(=O)[C@H](CCSC)NC(=O)[C@@H](N)CC(=O)O)C(C)C)C(N)=O", 69],
  ["FC(F)(F)c1ccccc1CN[C@@H]1C2CCN(CC2)[C@@H]1C(c1ccccc1)c1ccccc1", 740]
]}

Data request, read-out IC50, for Clc1ccccc1CN[C@@H]1C2CCN(CC2)[C@@H]1C(c1ccccc1)c1ccccc1
110

====

# SYSTEM NAME: Substance-P receptor (Rattus norvegicus, UniProt P14600)
# PROTOCOL: Binding affinity towards Tachykinin receptor 1 in rat cerebral cortex membranes was determined by using 125 [I]-BHSP as radioligand
# Format: cell membranes, Membrane
This section presents compounds with their documented pIC50 values.
# reply with the number alone; pIC50 is -log10 of concentration in mol/L

{"columns": ["STRUCTURE STRING", "METRIC", "MEASURED"],
 "data": [
  ["Fc1ccccc1CN[C@@H]1C2CCN(CC2)[C@@H]1C(c1ccccc1)c1ccccc1", "pIC50", 6.00]
]}

Next, consider the following compound.
Request body: readout pIC50, system Substance-P receptor (Rattus norvegicus, UniProt P14600), query Clc1ccccc1CCN[C@@H]1C2CCN(CC2)[C@@H]1C(c1ccccc1)c1ccccc1 . Return the value.
5.14

====

# SYSTEM NAME: Neuromedin-K receptor (Rattus norvegicus)
# Sequence (P16177 whole entry): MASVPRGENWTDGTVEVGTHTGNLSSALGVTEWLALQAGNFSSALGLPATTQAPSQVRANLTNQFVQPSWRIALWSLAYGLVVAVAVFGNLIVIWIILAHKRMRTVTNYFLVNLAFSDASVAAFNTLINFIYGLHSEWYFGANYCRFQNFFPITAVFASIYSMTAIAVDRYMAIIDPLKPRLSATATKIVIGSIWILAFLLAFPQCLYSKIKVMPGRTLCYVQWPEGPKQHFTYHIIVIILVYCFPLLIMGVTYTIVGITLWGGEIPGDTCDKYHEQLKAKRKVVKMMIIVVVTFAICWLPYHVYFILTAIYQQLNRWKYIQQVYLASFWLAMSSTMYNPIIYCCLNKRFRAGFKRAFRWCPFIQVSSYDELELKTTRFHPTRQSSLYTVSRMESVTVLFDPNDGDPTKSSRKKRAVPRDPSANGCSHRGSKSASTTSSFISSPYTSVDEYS
# PROTOCOL: Ability to displace the binding of [3H]-Senktide to Tachykinin receptor 3 in rat cerebral cortex membranes was determined.
pIC50: −log10 of the molar value.
Some compounds, each annotated with its measured pIC50.

Examples from the recorded data:
{"columns": ["STRUCTURE STRING", "pIC50"],
 "data": [
  ["COc1ccccc1CN[C@@H]1C2CCN(CC2)[C@@H]1Cc1ccccc1", "≤ 4.00"],
  ["COc1ccccc1CN[C@@H]1C2CCN(CC2)[C@@H]1C(c1ccccc1)c1ccccc1", "≤ 4.00"]
]}

So what's the measured pIC50 for this one? COc1ccccc1CN[C@H]1C2CCN(CC2)[C@@H]1C(c1ccccc1)c1ccccc1
≤ 4.00

Query: pIC50; subject: N[C@@H]1C2CCN(CC2)[C@@H]1C(c1ccccc1)c1ccccc1
≤ 4.00

Field request: pIC50 | item: FC(F)(F)c1ccccc1CN[C@@H]1C2CCN(CC2)[C@@H]1C(c1ccccc1)c1ccccc1
≤ 4.00

Look up pIC50 for this compound: Fc1ccccc1CN[C@@H]1C2CCN(CC2)[C@@H]1C(c1ccccc1)c1ccccc1
≤ 4.00

# query: pIC50 of entry COc1ccccc1CO[C@@H]1C2CCN(CC2)[C@@H]1C(c1ccccc1)c1ccccc1
≤ 4.00

Give its pIC50 value. Item: O=C(N[C@@H]1C2CCN(CC2)[C@@H]1C(c1ccccc1)c1ccccc1)c1ccccc1Cl
≤ 4.00

====

The reader will find IC50 measurements below, all made with UniProt P30547.
The response must be a number in nM with no trailing unit.

Reference set (3 entries):
{"columns": ["STRUCTURE STRING", "VALUE UNITS", "MEASURED"],
 "data": [
  ["Clc1ccccc1CN[C@@H]1C2CCN(CC2)[C@@H]1C(c1ccccc1)c1ccccc1", "nM", 8.5],
  ["Clc1ccccc1CCN[C@@H]1C2CCN(CC2)[C@@H]1C(c1ccccc1)c1ccccc1", "nM", 160],
  ["Fc1ccccc1CN[C@@H]1C2CCN(CC2)[C@@H]1C(c1ccccc1)c1ccccc1", "nM", 37]
]}

Provide value of IC50 for this record tested with UniProt P30547: COc1ccccc1CO[C@@H]1C2CCN(CC2)[C@@H]1C(c1ccccc1)c1ccccc1
150

====

# SYSTEM NAME: Substance-P receptor (Rattus norvegicus, UniProt P14600)
# PROTOCOL: The binding affinity towards NK1 receptor in rat cerebral cortex membranes was determined by using 125 [I]-BHSP as radioligand
# Type: cell membranes, Membrane
pIC50: −log10 of the molar value.
METRIC: pIC50

Give its pIC50 value. Item: Clc1ccccc1CCCN[C@@H]1C2CCN(CC2)[C@@H]1C(c1ccccc1)c1ccccc1
< 5.00

// data source = ChEMBL document CHEMBL1159145
